tgt: DENV NS2B/NS3 protease (Dengue virus type 2, UniProt P29990)
Sequence (P29990 1398-1437): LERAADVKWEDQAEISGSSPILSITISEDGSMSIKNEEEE
Sequence (P29990 1476-1653): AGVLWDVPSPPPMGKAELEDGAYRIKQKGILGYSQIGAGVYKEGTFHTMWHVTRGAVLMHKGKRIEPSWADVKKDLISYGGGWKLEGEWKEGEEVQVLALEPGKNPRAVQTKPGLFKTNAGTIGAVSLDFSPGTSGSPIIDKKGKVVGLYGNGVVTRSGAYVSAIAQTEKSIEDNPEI
protocol-text: protease selectivity panel, fluorometric assay DENV NS2B/NS3 protease
Assay type: biochemical
recorded-conditions: 100 µM inhibitor; n. i. = no inhibition at 100 µM; read-out: DENV inhibition relative to the DMSO control
outcome-measure: inhibition at 100 µM (%)
Respond numerically; units are % and should not be typed.

{"columns": ["smiles-record", "value-observed"],
 "data": [
  ["CS(=O)(=O)c1nc(Cl)cc(NC(=O)c2ccccc2Oc2ccccc2)n1", 15]
]}

Enquiry: # return inhibition at 100 µM of `CS(=O)(=O)c1ncc(Br)c(C(=O)Nc2cccc(Oc3ccccc3)c2)n1` (system: DENV NS2B/NS3 protease (Dengue virus type 2, UniProt P29990))
Return: 5.2

Enquiry: # return inhibition at 100 µM of `CS(=O)(=O)c1ncc(Cl)c(C(=O)Nc2ccccc2Oc2ccccc2)n1` (system: DENV NS2B/NS3 protease (Dengue virus type 2, UniProt P29990))
Return: 2.6

Enquiry: # return inhibition at 100 µM of `CS(=O)(=O)c1ncc(Cl)c(C(=O)Nc2cccc(C(=O)c3ccccc3)c2)n1` (system: DENV NS2B/NS3 protease (Dengue virus type 2, UniProt P29990))
Return: 5.1

====

tgt: S. aureus SrtA (Staphylococcus aureus, UniProt Q2FV99)
Construct: His tag (inferred from IMAC on a HisTrap column); made in house; host or cells: E. coli BL21 Gold (DE3)
Sequence (Q2FV99 60-206): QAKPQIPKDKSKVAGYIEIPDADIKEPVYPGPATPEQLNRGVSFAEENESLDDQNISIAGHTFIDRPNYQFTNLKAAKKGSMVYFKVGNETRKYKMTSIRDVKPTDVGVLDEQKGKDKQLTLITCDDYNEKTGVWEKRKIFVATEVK
protocol-text: fluorometric enzyme assay of SrtA transpeptidation (Abz-LPETG-Dap(Dnp)-OH substrate)
Format: biochemical
recorded-conditions: read-out: KI; dissociation constant of the reversible enzyme-inhibitor complex; Tris pH 7.50; n. i. = <20% inhibition at 100 µM
Kind request: treat 50 µM as inclusive, so KI (inactivation) at 50 µM or higher is rule met, anything lower is rule not met.

{"columns": ["compound", "class-label"],
 "data": [
  ["CS(=O)(=O)c1ncc(Cl)c(C(=O)Nc2cccc(Oc3ccccc3)c2)n1 [Compound 5a]", "rule met"],
  ["CS(=O)(=O)c1ncc(Cl)c(C(=O)Nc2cccc(C(=O)c3ccccc3)c2)n1 [Compound 6a]", "rule not met"]
]}

Enquiry: Could you verify whether the entry CS(=O)(=O)c1ncc(Cl)c(C(=O)Nc2cccc(Cc3ccccc3)c2)n1 [Compound 6d] shows KI (inactivation) of no less than 50 µM?
Return: rule met

Enquiry: Could you verify whether the entry CS(=O)(=O)c1ncc(Cl)c(C(=O)Nc2ccccc2Cc2ccccc2)n1 [Compound 4] shows KI (inactivation) of no less than 50 µM?
Return: rule not met

Enquiry: Could you verify whether the entry CS(=O)(=O)c1ncc(Cl)c(C(=O)NCC(=O)Nc2cccc(Oc3ccccc3)c2)n1 [Compound 5b] shows KI (inactivation) of no less than 50 µM?
Return: rule not met

Enquiry: Could you verify whether the entry CS(=O)(=O)c1ncc(Br)c(C(=O)Nc2cccc(C(=O)c3ccccc3)c2)n1 [Compound 7a] shows KI (inactivation) of no less than 50 µM?
Return: rule not met

Enquiry: Could you verify whether the entry CS(=O)(=O)c1ncc(Br)c(C(=O)Nc2cccc(Oc3ccccc3)c2)n1 [Compound 7b] shows KI (inactivation) of no less than 50 µM?
Return: rule met

Enquiry: Could you verify whether the entry CS(=O)(=O)c1ncc(Cl)c(C(=O)Nc2cccc(OC3CCCCC3)c2)n1 [Compound 6c] shows KI (inactivation) of no less than 50 µM?
Return: rule met

Enquiry: Could you verify whether the entry CS(=O)(=O)c1ncc(Cl)c(C(=O)Nc2cccc(Sc3ccccc3)c2)n1 [Compound 6b] shows KI (inactivation) of no less than 50 µM?
Return: rule not met
